Source listed as the supplement of paper PMC10567573.

B1: FAM164C (parent)
chain: YPHCTGISQQDPESDSQGQGNGLF

Variants of: B1
EXPERIMENT_NOTES: protein stability index of a GFP-peptide fusion (GPS, HEK-293T) (PSI 1-6); higher = more stable;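 further: lentivirally expressed fusions sorted by FACS into six bins by GFP to DsRed ratio, PSI derived from sequencing read proportions per bin multiplied by bin number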
TEST_SETTINGS: c terminus: a fixed tail appended
Would you mind labelling by protein stability index? At or over 4 is Satisfied, under is Not satisfied.

variant_identifier=L23C category_label=Satisfied
variant_identifier=D11K category_label="Not satisfied"
variant_identifier=H3Y category_label="Not satisfied"

Switching to the query record.
Q. Reported protein stability index reaches at least 4 for `D11L` ?
A. Not satisfied
